- target: recombinant human PARP (Homo sapiens, UniProt P09874)
- Sequence (P09874 whole entry): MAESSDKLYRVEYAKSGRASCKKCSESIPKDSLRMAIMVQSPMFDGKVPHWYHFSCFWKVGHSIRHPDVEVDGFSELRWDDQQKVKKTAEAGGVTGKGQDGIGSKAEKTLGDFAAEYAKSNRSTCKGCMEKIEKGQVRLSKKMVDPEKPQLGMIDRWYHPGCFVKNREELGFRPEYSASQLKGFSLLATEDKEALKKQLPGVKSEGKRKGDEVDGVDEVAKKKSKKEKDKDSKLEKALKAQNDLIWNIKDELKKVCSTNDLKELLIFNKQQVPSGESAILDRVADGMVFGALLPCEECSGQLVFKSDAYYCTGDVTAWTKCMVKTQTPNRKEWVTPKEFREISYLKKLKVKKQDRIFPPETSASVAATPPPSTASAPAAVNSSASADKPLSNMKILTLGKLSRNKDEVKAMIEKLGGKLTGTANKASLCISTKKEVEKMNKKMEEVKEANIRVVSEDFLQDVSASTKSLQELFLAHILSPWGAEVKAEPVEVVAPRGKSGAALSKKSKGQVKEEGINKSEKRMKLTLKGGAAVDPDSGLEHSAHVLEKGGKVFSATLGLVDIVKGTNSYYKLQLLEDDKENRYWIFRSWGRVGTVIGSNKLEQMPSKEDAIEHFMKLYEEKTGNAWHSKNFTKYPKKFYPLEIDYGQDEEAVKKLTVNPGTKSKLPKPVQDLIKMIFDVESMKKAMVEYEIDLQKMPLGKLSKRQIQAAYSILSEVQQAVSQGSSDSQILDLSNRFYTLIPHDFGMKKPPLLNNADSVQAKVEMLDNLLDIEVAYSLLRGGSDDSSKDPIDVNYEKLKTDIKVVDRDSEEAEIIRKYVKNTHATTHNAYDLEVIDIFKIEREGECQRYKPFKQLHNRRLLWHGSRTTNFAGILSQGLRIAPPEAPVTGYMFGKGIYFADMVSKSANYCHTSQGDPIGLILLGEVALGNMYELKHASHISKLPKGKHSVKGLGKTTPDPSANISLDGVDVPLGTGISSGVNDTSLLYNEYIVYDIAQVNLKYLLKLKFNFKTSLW
- measurement-notes: Measurement of PARP enzymatic activity (transfer of radiolabeled ADP-ribose from NAD+ to protein acceptor)
- Assay type: biochemical
- assay-setup: Table 2; read-out: PARP IC50
Structures can show the parent of a compound that is named as a salt.
Exercise: state measured IC50 for each of the compounds provided.
Express the result in nM but write the number alone.

Requested read-out: IC50. Entry: NCc1ccc2[nH]c3c4c(c5c(c3c2c1)C(=O)NC5=O)CCC4 [Compound 2p, hydrochloride]
13

Try this compound next: CN(C)CCN(C)C(=O)c1ccc2[nH]c3c4c(c5c(c3c2c1)C(=O)NC5=O)CCC4
151

Try this compound next: CC(O)c1ccc2[nH]c3c4c(c5c(c3c2c1)C(=O)NC5=O)CCC4 (centres unmarked)
102

Try this compound next: O=C1NC(=O)c2c1c1c(c3[nH]c4ccc(COCCc5ccccn5)cc4c23)CCC1
104

Try this compound next: O=C1NC(=O)c2c1c1c(c3[nH]c4ccc(OCCN5CCOCC5)cc4c23)CCC1
22

Try this compound next: CCC(=O)NCc1ccc2[nH]c3c4c(c5c(c3c2c1)C(=O)NC5=O)CCC4
28

Try this compound next: CN(C)CC(=O)OCc1ccc2[nH]c3c4c(c5c(c3c2c1)C(=O)NC5=O)CCC4
31

Try this compound next: CN(CC1CCNCC1)C(=O)c1ccc2[nH]c3c4c(c5c(c3c2c1)C(=O)NC5=O)CCC4
23
